- testTarget: c-kit (Homo sapiens, UniProt P10721)
- Construct: human Mo7e cells which endogenously express c-kit; endogenous in cells; host or cells: human Mo7e cells (SCF-dependent promegakaryocytic leukemia line)
- Sequence (P10721 26-976): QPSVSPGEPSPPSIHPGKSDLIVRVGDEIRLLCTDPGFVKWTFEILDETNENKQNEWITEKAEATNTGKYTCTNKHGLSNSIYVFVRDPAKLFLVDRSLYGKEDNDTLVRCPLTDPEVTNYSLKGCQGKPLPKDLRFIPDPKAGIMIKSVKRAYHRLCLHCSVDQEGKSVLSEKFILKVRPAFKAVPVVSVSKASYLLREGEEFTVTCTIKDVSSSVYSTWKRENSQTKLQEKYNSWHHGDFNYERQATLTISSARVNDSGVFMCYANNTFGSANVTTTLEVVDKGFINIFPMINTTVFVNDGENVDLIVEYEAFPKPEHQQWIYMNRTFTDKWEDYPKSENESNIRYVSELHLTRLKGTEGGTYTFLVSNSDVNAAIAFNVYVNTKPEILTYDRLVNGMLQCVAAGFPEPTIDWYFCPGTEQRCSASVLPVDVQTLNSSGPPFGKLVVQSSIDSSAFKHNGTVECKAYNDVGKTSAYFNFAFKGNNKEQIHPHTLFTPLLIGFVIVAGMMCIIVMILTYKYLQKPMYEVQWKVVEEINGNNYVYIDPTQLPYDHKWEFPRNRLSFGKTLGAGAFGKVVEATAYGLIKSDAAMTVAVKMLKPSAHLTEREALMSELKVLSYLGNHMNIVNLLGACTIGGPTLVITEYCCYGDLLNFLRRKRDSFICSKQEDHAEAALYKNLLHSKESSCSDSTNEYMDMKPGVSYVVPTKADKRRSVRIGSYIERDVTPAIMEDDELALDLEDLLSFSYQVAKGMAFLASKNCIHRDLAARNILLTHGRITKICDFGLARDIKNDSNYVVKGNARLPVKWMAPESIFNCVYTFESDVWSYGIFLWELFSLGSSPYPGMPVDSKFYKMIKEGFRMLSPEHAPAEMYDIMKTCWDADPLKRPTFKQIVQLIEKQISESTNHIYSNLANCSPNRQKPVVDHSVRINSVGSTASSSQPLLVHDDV
- testDescription: Mo7e cell proliferation assay (SCF dependent proliferation)
- Assay type: cell-based
- particulars: Table 2; human Mo7e cells stimulated with human recombinant SCF, 48 h, CellTiter Glo; 1% FBS (footnote)
- Protocol: Compounds of Formula (I) and Formula (II) provided herein were assayed to measure their capacity to inhibit c-kit and PDGFR kinases using the appropriate assay described below: c-Kit inhibition was evaluated using the Mo7e cell proliferation assay, and PDGFR inhibition was evaluated using the Rat A10 cell proliferation assay and the Human TGHA-VSMC cell proliferation assay. […]
The entries below come with measured IC50 values attached.
// return numeric value only (unit: nM, not printed)

compound: Cc1nc(-c2ccc(C)c(NC(=O)c3cnc4ccc(-c5nc(C)c(C(C)O)s5)cn34)c2)no1 (centres unmarked) [F236]
unitAbbrev: nM
IC50: 166

Item CCNC(=O)CCc1nc(-c2ccc(C)c(NC(=O)c3cnc4ccccn34)c2)no1 [F118] was tested on c-kit (Homo sapiens, UniProt P10721); the reported IC50 is 527

Item Cc1nc(-c2ccc(C)c(NC(=O)c3cnc4ccc(C(N)=S)cn34)c2)no1 [F241] was tested on c-kit (Homo sapiens, UniProt P10721); the reported IC50 is 127

Item Cc1nc(-c2ccc(C)c(NC(=O)c3cnc4ccc(-c5nc(C)c(C(=O)NCCN6CCN(C)CC6)s5)cn34)c2)no1 [F243] was tested on c-kit (Homo sapiens, UniProt P10721); the reported IC50 is 194

Item Cc1ccc(-c2noc(CCC(=O)O)n2)cc1NC(=O)c1cnc2ccccn12 [F229] was tested on c-kit (Homo sapiens, UniProt P10721); the reported IC50 is 5450

Origin of measurements: patent US20150011508A1
